Reference source: patent US20210230266A1

Measured mIL11 - average signal accompanies every entry in the list below.
- Test system: T1, Mouse IL-11 (mouse, UniProt P47873 22-199, limits assumed)
- T1 construct: also called murine IL-11; recombinant murine IL-11
- T1 sequence (looked up): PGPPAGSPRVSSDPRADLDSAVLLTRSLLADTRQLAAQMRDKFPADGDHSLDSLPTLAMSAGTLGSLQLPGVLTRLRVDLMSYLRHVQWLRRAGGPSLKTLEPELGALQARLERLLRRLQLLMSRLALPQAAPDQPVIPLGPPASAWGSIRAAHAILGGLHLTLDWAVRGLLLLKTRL
- Experimental details: ELISA

mIL11 - average signal for YU112-C05 (antibody) EVQLVESGGGVVQPGRSLRLSCAASGFTFSSYAMHWVRQAPGKGLEWVAVISYDGSNKYYADSVKGRFTISRDNSKNTLYLQMNSLRAEDTAVYYCARIMGYDYGDYDVVDYWGQGTLVTVSSGSASAPKLEEGEFSEARVQSALTQPRSVSGSPGQSVTISCTGTISDVGGYNYVSWYQQHPGKAPKLMIYDVTKRPSGVPDRFSGSKSGNTASLTISGLQAEDEAGYYCSSYAGSYTWVFGGGTELTVL is 0.685

mIL11 - average signal for YU100-E09 (antibody) QVQLVESGGGVVQPGRSLRLSCAASGFTFSSYAMHWVRQAPGKGLEWVAVISYDGSNKYYADSVKGRFTISRDNSKNTLYLQMNSLRAEDTAVYYCARIMGYDYGDYDVVDYWGQGTLVTVSSGSASAPKLEEGEFSEARVQSALTQPRSVSGSPGQSVTISCTGTSSDVGDYDYVSWYQQHPGKAPKLIIYDVTKRPSGIPDRFSGSKSGNTASLTISGLQAEDEADYYCCSYAGSYTWVFGRGTKLTVL is 0.335

mIL11 - average signal for YU100-H09 (antibody) QVQLVQSGGGVVQPGRSLRLSCAASGFTFSSYAMHWVRQAPGKGLEWVAVISYDGSNKYYADSVKGRFTISRDNSKNTLYLQMNSLRAEDTAVYYCARIMGYDYGDYDVVDYWGQGTLVTVSSGSASAPKLEEGEFSEARVQSALTQPASVSGSPGQSITISCTGTSSDVGGYNYVSWYQQHPGKAPKLMIYDVSNRPSGVSNRFSGSKSGNTASLTISGLQAEDEADYYCCSYAGSYTWVFGGGTKLTVL is 0.668

mIL11 - average signal for YU100-G11 (antibody) QVQLVESGGGVVQPGRSLRLSCAASGFTFSSYGMHWVRQAPGKGLEWVAVISYDGSNKYYADSVKGRFTISRDNSKNTLYLQMNSLRAEDTAVYYCARIMGYDYGDYDVVDYWGQGTLVTVSSGSASAPKLEEGEFSEARVQSALTQPRSVSGSPGQSVTISCTGTSSDVGGYNYVSWYQQHPGKAPKLTLYDVGKRPSGVPDRFSGSKSGNTASLTISGLQAEDEADYYCCSYAGGYTWVFGGGTKVTVV is 0.507
